The reported measurements were obtained from BindingDB's records for doi:10.1074/jbc.M111.292243.

# testSystem: Acetylcholine-binding protein (Lymnaea stagnalis)
# Sequence (P58154 whole entry): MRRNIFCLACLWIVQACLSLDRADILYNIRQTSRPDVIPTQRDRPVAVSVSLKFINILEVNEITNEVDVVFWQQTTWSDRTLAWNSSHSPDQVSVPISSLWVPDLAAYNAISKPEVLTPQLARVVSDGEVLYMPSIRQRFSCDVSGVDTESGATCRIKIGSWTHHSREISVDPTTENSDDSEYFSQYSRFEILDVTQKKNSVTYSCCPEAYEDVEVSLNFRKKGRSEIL
Could you please report measured pKi for the items listed next?
Give bare numbers, as −log10 of the molar value.

O=c1cccc2n1CC1CNCC2C1 (stereo not drawn) [CAS_485-35-8]: 8.09
CCOc1cncc(N2CCCNCC2)c1 [NS3573, 2]: 8.66

// next item, pKi requested
Need pKi of `Clc1ccc([C@H]2C[C@@H]3CC[C@H]2N3)cn1` , thanks.
10.01

----------
# testSystem: Neuronal acetylcholine receptor subunit alpha-4 (Rattus norvegicus)
# Sequence (P09483 whole entry): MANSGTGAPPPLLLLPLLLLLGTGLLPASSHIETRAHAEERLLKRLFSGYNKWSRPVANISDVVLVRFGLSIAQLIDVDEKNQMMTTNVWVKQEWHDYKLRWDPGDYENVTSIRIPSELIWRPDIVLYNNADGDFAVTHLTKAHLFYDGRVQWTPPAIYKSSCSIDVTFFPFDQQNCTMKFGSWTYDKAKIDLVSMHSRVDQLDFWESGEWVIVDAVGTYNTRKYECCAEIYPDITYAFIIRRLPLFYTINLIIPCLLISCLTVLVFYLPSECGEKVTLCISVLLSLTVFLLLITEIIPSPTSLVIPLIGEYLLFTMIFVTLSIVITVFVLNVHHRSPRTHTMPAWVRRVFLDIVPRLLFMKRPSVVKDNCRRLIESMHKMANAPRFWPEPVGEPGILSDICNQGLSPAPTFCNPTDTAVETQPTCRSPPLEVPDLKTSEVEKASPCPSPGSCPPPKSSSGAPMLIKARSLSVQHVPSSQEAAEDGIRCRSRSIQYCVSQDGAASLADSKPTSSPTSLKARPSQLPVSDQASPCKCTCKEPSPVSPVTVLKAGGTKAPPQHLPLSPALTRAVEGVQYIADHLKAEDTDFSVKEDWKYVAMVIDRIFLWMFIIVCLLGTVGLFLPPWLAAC
# test: Radioligand Competition Assay
Could you please report measured Ki for the items listed next?
Give bare numbers, in nM.

c1cncc(N2CCCNCC2)c1: 0.72
O=c1cccc2n1CC1CNCC2C1 (stereo unspecified) [CAS_485-35-8]: 0.95

Please supply Ki for each of the following items, keeping them in order.
1. CCOc1cc(N2CCCNCC2)cnc1Br
2. CCOc1cncc(N2CCCNCC2)c1 [NS3573, 2]
3. Brc1ccc(N2CCCNCC2)cn1 [NS3920, 4]
4. c1ccc(-c2cncc(N3CCCNCC3)c2)cc1

1. 0.25
2. 0.62
3. 0.32
4. 0.8
